All values here come from ChEMBL document CHEMBL1128815.

- study_target: UniProt P25104
- Sequence (P25104 whole entry): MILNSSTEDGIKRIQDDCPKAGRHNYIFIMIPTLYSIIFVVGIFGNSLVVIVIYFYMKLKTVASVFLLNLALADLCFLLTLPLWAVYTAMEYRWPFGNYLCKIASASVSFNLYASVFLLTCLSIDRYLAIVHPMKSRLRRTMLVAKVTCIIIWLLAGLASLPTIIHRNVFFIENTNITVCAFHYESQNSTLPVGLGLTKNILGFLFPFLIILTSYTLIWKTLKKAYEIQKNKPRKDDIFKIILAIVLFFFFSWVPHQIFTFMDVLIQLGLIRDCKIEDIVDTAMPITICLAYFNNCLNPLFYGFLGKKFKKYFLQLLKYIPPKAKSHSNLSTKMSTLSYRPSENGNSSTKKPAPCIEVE
# class assignment by measured IC50: I: < 30 nM; II: ≥ 30 nM and < 100 nM; III: ≥ 100 nM

A selection of reference data follows.
compound	group_label
CCCc1cc(=O)n(CCNC(=O)NC2CCCCC2)c(=O)n1Cc1ccc(-c2ccccc2-c2nnn[nH]2)cc1	I
CCCCc1cc(=O)n2nc(-c3ccccc3)nc2n1Cc1ccc(-c2ccccc2-c2nn[nH]n2)cc1	III
C=CCn1c(=O)cc(CCC)n(Cc2ccc(-c3ccccc3-c3nnn[nH]3)cc2)c1=O	II
CCCc1c(C)c(=O)n(C)c(=O)n1Cc1ccc(-c2ccccc2-c2nnn[nH]2)cc1	III
CCCCn1c(=O)cc(CCC)n(Cc2ccc(-c3ccccc3-c3nn[nH]n3)cc2)c1=O	I

Request: Bin this entry: `CCCc1cc(=O)n(C)c(=O)n1Cc1ccc(-c2ccccc2-c2nn[nH]n2)cc1`
Result: II

Request: Another compound to check: `CCc1cc(=O)n(C)c(=O)n1Cc1ccc(-c2ccccc2-c2nnn[nH]2)cc1`
Result: III

Request: Another compound to check: `CCCc1cc2ncnn2c(=O)n1Cc1ccc(-c2ccccc2-c2nnn[nH]2)cc1`
Result: II

Request: Another compound to check: `CCCc1cc(=O)n(Cc2ccccc2)c(=O)n1Cc1ccc(-c2ccccc2-c2nn[nH]n2)cc1`
Result: I

###

- study_target: UniProtKB P29089
- Sequence (P29089 whole entry): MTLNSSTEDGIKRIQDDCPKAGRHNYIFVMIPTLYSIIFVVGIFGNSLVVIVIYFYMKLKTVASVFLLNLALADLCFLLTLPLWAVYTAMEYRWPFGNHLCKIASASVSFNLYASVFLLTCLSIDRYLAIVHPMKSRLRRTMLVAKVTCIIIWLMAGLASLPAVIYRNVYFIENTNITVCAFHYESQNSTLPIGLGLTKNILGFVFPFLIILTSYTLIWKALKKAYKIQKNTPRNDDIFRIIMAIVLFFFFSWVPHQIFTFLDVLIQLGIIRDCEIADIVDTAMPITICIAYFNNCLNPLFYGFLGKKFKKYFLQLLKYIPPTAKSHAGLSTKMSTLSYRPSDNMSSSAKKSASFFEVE
endpoint_name: IC50 (nM)
Field: numeric (nM). Do not append units.

// worked examples, IC50 included
compound	value_unit	IC50
CCCCc1cc(=O)n(Cc2ccccc2C(=O)OC)c(=O)n1Cc1ccc(-c2ccccc2-c2nnn[nH]2)cc1	nM	2.4
CCCc1cc(=O)[nH]c(=O)n1Cc1ccc(-c2ccccc2-c2nn[nH]n2)cc1	nM	4.3

Request: Please give the measured IC50 for this compound: `CCCCc1cc(=O)n2nc(-c3ccccc3)nc2n1Cc1ccc(-c2ccccc2-c2nn[nH]n2)cc1`
Result: 83

Request: Another compound to check: `C=CCn1c(=O)cc(CCC)n(Cc2ccc(-c3ccccc3-c3nnn[nH]3)cc2)c1=O`
Result: 3.3
